test system: NCI-H1355; test: relative viability (nuclei count vs DMSO), 5 days (fraction); higher = more cells survive; conditions: first compound 0.8 µM
Under this convention, Condition met denotes relative viability strictly below 0.8 and Condition not met denotes relative viability at or above 0.8.

Oc1nc(-c2ccc(C(F)(F)F)cc2)nc2c1CSCC2 [XAV939] + N=C(N)NC(=N)NCCc1ccccc1 [Phenformin] (partner 250 µM)	Condition met
C=C1C(=O)O[C@@H](CCCCCCCC)[C@@H]1C(=O)O [C-75] + O=C(c1cc(Cc2n[nH]c(=O)c3ccccc23)ccc1F)N1CCN(C(=O)C2CC2)CC1 [Olaparib] (partner 8 µM)	Condition met
C=C1C(=O)O[C@@H](CCCCCCCC)[C@@H]1C(=O)O [C-75] + C[C@@H](Oc1cc(-c2cnn(C3CCNCC3)c2)cnc1N)c1c(Cl)ccc(F)c1Cl [Crizotinib] (partner 1 µM)	Condition not met
C=C1C(=O)O[C@@H](CCCCCCCC)[C@@H]1C(=O)O [C-75] + CC(=O)Nc1cccc(-n2c(=O)n(C3CC3)c(=O)c3c(Nc4ccc(I)cc4F)n(C)c(=O)c(C)c32)c1 [Trametinib] (partner 0.02 µM)	Condition met

Pending compound:
Data request: Strictly below 0.8 in relative viability? Oc1nc(-c2ccc(C(F)(F)F)cc2)nc2c1CSCC2 [XAV939] + O=C(CCCCCCC(=O)Nc1ccccc1)NO [Vorinostat] (partner 1 µM)
Data returned: Condition met

---

test system: NCI-H1734; test: relative viability (nuclei count vs DMSO), 5 days (fraction); higher = more cells survive; conditions: first compound 0.5 µM
Hi there, I'd appreciate the recorded relative viability for every entry that follows.
One number for each entry.

Below, 3 compounds whose answers are already recorded.
CC1(C)CCC(c2ccc(Cl)cc2)=C(CN2CCN(c3ccc(C(=O)NS(=O)(=O)c4ccc(N[C@H](CCN5CCOCC5)CSc5ccccc5)c(S(=O)(=O)C(F)(F)F)c4)cc3)CC2)C1 [Navitoclax] + CCNC(=O)c1noc(-c2cc(C(C)C)c(O)cc2O)c1-c1ccc(CN2CCOCC2)cc1 [Luminespib] (partner 0.01 µM)	0.16
CC1(C)CCC(c2ccc(Cl)cc2)=C(CN2CCN(c3ccc(C(=O)NS(=O)(=O)c4ccc(N[C@H](CCN5CCOCC5)CSc5ccccc5)c(S(=O)(=O)C(F)(F)F)c4)cc3)CC2)C1 [Navitoclax] + CC(=O)c1c(C)c2cnc(Nc3ccc(N4CCNCC4)cn3)nc2n(C2CCCC2)c1=O [Palbociclib] (partner 0.5 µM)	0.367
CC1(C)CCC(c2ccc(Cl)cc2)=C(CN2CCN(c3ccc(C(=O)NS(=O)(=O)c4ccc(N[C@H](CCN5CCOCC5)CSc5ccccc5)c(S(=O)(=O)C(F)(F)F)c4)cc3)CC2)C1 [Navitoclax] + Cc1nc(NC(=O)N2CCC[C@H]2C(N)=O)sc1-c1ccnc(C(C)(C)C(F)(F)F)c1 [Alpelisib] (partner 2 µM)	0.63

We next turn to a different compound, shown below.
Data request: Can you look up the measured relative viability of CC1(C)CCC(c2ccc(Cl)cc2)=C(CN2CCN(c3ccc(C(=O)NS(=O)(=O)c4ccc(N[C@H](CCN5CCOCC5)CSc5ccccc5)c(S(=O)(=O)C(F)(F)F)c4)cc3)CC2)C1 [Navitoclax] + COc1cc2c(Oc3ccc(NC(=O)C4(C(=O)Nc5ccc(F)cc5)CC4)cc3F)ccnc2cc1OCCCN1CCOCC1 [Foretinib] (partner 0.25 µM) for me?
Data returned: 0.906

---

test system: SW 1573; assay: relative viability (nuclei count vs DMSO), 5 days (fraction); higher = more cells survive; conditions: first compound 0.4 µM
RESULT TYPE: relative viability

State recorded relative viability for all listed molecules.
1. O=C(O)c1ccc(-c2c[nH]c3ncc(-c4ccccc4)cc23)cc1C1CCCC1 + CCNC(=O)c1noc(-c2cc(C(C)C)c(O)cc2O)c1-c1ccc(CN2CCOCC2)cc1 [Luminespib] (partner 0.01 µM)
2. O=C(O)c1ccc(-c2c[nH]c3ncc(-c4ccccc4)cc23)cc1C1CCCC1 + CS(=O)(=O)CCNCc1ccc(-c2ccc3ncnc(Nc4ccc(OCc5cccc(F)c5)c(Cl)c4)c3c2)o1 [Lapatinib] (partner 2 µM)

Data returned:
0.292
1.14

State recorded relative viability for all listed molecules.
1. O=C(O)c1ccc(-c2c[nH]c3ncc(-c4ccccc4)cc23)cc1C1CCCC1 + CC(=O)c1c(C)c2cnc(Nc3ccc(N4CCNCC4)cn3)nc2n(C2CCCC2)c1=O [Palbociclib] (partner 0.5 µM)
2. O=C(O)c1ccc(-c2c[nH]c3ncc(-c4ccccc4)cc23)cc1C1CCCC1 + Cc1nc(Nc2ncc(C(=O)Nc3c(C)cccc3Cl)s2)cc(N2CCN(CCO)CC2)n1 [Dasatinib] (partner 0.075 µM)
3. O=C(O)c1ccc(-c2c[nH]c3ncc(-c4ccccc4)cc23)cc1C1CCCC1 + O=C(c1cc(Cc2n[nH]c(=O)c3ccccc23)ccc1F)N1CCN(C(=O)C2CC2)CC1 [Olaparib] (partner 8 µM)
4. O=C(O)c1ccc(-c2c[nH]c3ncc(-c4ccccc4)cc23)cc1C1CCCC1 + Cc1cc(Nc2cc(N3CCN(C)CC3)nc(Sc3ccc(NC(=O)C4CC4)cc3)n2)n[nH]1 [Tozasertib] (partner 0.1 µM)

Data returned:
0.309
0.455
0.427
0.211

---

Hi there, I'd appreciate the recorded relative viability for every entry that follows.
test system: A-427; assay: relative viability (nuclei count vs DMSO), 5 days (fraction); higher = more cells survive; settings: first compound 2.53 µM
Give bare numbers.

Oc1nc(-c2ccc(C(F)(F)F)cc2)nc2c1CSCC2 [XAV939] + Cc1nc(NC(=O)N2CCC[C@H]2C(N)=O)sc1-c1ccnc(C(C)(C)C(F)(F)F)c1 [Alpelisib] (partner 2 µM)	1.02

State recorded relative viability for all listed compounds.
1. C=C1C(=O)O[C@@H](CCCCCCCC)[C@@H]1C(=O)O [C-75] + NC(=O)Nc1cc(-c2cccc(F)c2)sc1C(=O)N[C@H]1CCCNC1 [AZD7762] (partner 0.2 µM)
2. C=C1C(=O)O[C@@H](CCCCCCCC)[C@@H]1C(=O)O [C-75] + Cc1cc(Nc2cc(N3CCN(C)CC3)nc(Sc3ccc(NC(=O)C4CC4)cc3)n2)n[nH]1 [Tozasertib] (partner 0.1 µM)
3. C=C1C(=O)O[C@@H](CCCCCCCC)[C@@H]1C(=O)O [C-75] + O=C(CCCCCCC(=O)Nc1ccccc1)NO [Vorinostat] (partner 1 µM)
4. Oc1nc(-c2ccc(C(F)(F)F)cc2)nc2c1CSCC2 [XAV939] + O=C(CCCCCCC(=O)Nc1ccccc1)NO [Vorinostat] (partner 1 µM)
5. Oc1nc(-c2ccc(C(F)(F)F)cc2)nc2c1CSCC2 [XAV939] + Cc1nc(Nc2ncc(C(=O)Nc3c(C)cccc3Cl)s2)cc(N2CCN(CCO)CC2)n1 [Dasatinib] (partner 0.075 µM)
6. C=C1C(=O)O[C@@H](CCCCCCCC)[C@@H]1C(=O)O [C-75] + CS(=O)(=O)CCNCc1ccc(-c2ccc3ncnc(Nc4ccc(OCc5cccc(F)c5)c(Cl)c4)c3c2)o1 [Lapatinib] (partner 2 µM)

Data returned:
0.72
0.199
0.755
0.745
0.557
0.997

State recorded relative viability for all listed compounds.
1. Oc1nc(-c2ccc(C(F)(F)F)cc2)nc2c1CSCC2 [XAV939] + CC(C)C[C@H](NC(=O)[C@H](Cc1ccccc1)NC(=O)c1cnccn1)B(O)O [Bortezomib] (partner 0.002 µM)
2. Oc1nc(-c2ccc(C(F)(F)F)cc2)nc2c1CSCC2 [XAV939] + CCNC(=O)c1noc(-c2cc(C(C)C)c(O)cc2O)c1-c1ccc(CN2CCOCC2)cc1 [Luminespib] (partner 0.01 µM)
3. Oc1nc(-c2ccc(C(F)(F)F)cc2)nc2c1CSCC2 [XAV939] + O=C(c1cc(Cc2n[nH]c(=O)c3ccccc23)ccc1F)N1CCN(C(=O)C2CC2)CC1 [Olaparib] (partner 8 µM)
4. C=C1C(=O)O[C@@H](CCCCCCCC)[C@@H]1C(=O)O [C-75] + CCNC(=O)c1noc(-c2cc(C(C)C)c(O)cc2O)c1-c1ccc(CN2CCOCC2)cc1 [Luminespib] (partner 0.01 µM)
5. C=C1C(=O)O[C@@H](CCCCCCCC)[C@@H]1C(=O)O [C-75] + COc1cc2c(Oc3ccc(NC(=O)C4(C(=O)Nc5ccc(F)cc5)CC4)cc3F)ccnc2cc1OCCCN1CCOCC1 [Foretinib] (partner 0.25 µM)

Data returned:
1. 0.769
2. 0.782
3. 0.663
4. 0.842
5. 1.03

State recorded relative viability for all listed compounds.
1. Oc1nc(-c2ccc(C(F)(F)F)cc2)nc2c1CSCC2 [XAV939] + COc1cc2c(Oc3ccc(NC(=O)C4(C(=O)Nc5ccc(F)cc5)CC4)cc3F)ccnc2cc1OCCCN1CCOCC1 [Foretinib] (partner 0.25 µM)
2. Oc1nc(-c2ccc(C(F)(F)F)cc2)nc2c1CSCC2 [XAV939] + C[C@@H](Oc1cc(-c2cnn(C3CCNCC3)c2)cnc1N)c1c(Cl)ccc(F)c1Cl [Crizotinib] (partner 1 µM)

Data returned:
[0.862, 0.729]
